Test system: Entamoeba histolytica
Assay: Antiamnesic activity against Entamoeba histolytica HM-1:IMSS after 72 hrs by trypan blue exclusion method
Assay type: functional, organism-based
Conditions: in the assay text read “Antiamoebic” for “Antiamnesic”
PROPERTY_NAME: IC50 (µM)

compound="Cc1ccc(C2CC(c3ccccc3)=NN2c2nc3nc4ccccc4nc3s2)cc1 (stereo unspecified)" unit_abbreviation=µM obs_value=0.3

###

Assay: Safety index, ratio of IC50 for human kidney epithelial cells to IC50 for Entamoeba histolytica HM-1:IMSS
Conditions: epithelial cell
PROPERTY_NAME: selectivity ratio

compound="Cc1ncc([N+](=O)[O-])n1CCO [METRONIDAZOLE]" obs_value="> 55.6"

###

Assay: Cytotoxicity against human kidney epithelial cells after 44 hrs by MTT assay
Type: ADME, cell-based
Conditions: Epithelial cell
PROPERTY_NAME: IC50

compound="CC(C)c1ccccc1C1CC(c2ccccc2)=NN1c1nc2nc3ccccc3nc2s1 (stereo not drawn)" obs_value="> 50 µM"
compound="CC(C)c1ccccc1C1CC(c2ccccc2)=NN1C(N)=S (stereo not drawn)" obs_value="> 50 µM"
compound=CC(C)c1ccccc1/C=C/C(=O)c1ccccc1 obs_value="> 46 µM"
compound=O=C(/C=C/c1ccccc1Cl)c1ccccc1 obs_value="> 50 µM"
compound="NC(=S)N1N=C(c2ccccc2)CC1c1ccccc1 (stereo not drawn)" obs_value="> 50 µM"
compound="c1ccc(C2=NN(c3nc4nc5ccccc5nc4s3)C(c3c[nH]c4ccccc34)C2)cc1 (stereo not drawn)" obs_value="> 18 µM"
compound="Clc1ccccc1C1CC(c2ccccc2)=NN1c1nc2nc3ccccc3nc2s1 (stereo not drawn)" obs_value="> 50 µM"
compound="Cc1cc(C)c(C2CC(c3ccccc3)=NN2C(N)=S)c(C)c1 (stereo not drawn)" obs_value="> 50 µM"
compound="Cc1ccc(C2CC(c3ccccc3)=NN2C(N)=S)cc1 (stereo not drawn)" obs_value="> 50 µM"
compound=O=C(/C=C/c1c[nH]c2ccccc12)c1ccccc1 obs_value="> 44 µM"
compound="c1ccc(C2=NN(c3nc4nc5ccccc5nc4s3)C(c3ccccc3)C2)cc1 (stereo not drawn)" obs_value="> 50 µM"
compound=O=C(/C=C/c1ccc(Cl)c(Cl)c1)c1ccccc1 obs_value="> 50 µM"
compound="Clc1cccc(C2CC(c3ccccc3)=NN2c2nc3nc4ccccc4nc3s2)c1Cl (stereo not drawn)" obs_value="> 50 µM"
compound="NC(=S)N1N=C(c2ccccc2)CC1c1ccccc1Cl (stereo not drawn)" obs_value="> 50 µM"
compound=Cc1cc(C)c(/C=C/C(=O)c2ccccc2)c(C)c1 obs_value="> 50 µM"
compound="Cc1ccc(C2CC(c3ccccc3)=NN2c2nc3nc4ccccc4nc3s2)cc1 (stereo not drawn)" obs_value="> 14 µM"
compound="Cc1cc(C)c(C2CC(c3ccccc3)=NN2c2nc3nc4ccccc4nc3s2)c(C)c1 (stereo not drawn)" obs_value="> 35 µM"
compound=Cc1ncc([N+](=O)[O-])n1CCO obs_value="> 100 µM"
compound="CCc1ccccc1C1CC(c2ccccc2)=NN1C(N)=S (stereo not drawn)" obs_value="> 50 µM"
compound="CCc1ccccc1C1CC(c2ccccc2)=NN1c1nc2nc3ccccc3nc2s1 (stereo not drawn)" obs_value="> 50 µM"
compound="NC(=S)N1N=C(c2ccccc2)CC1c1c[nH]c2ccccc12 (stereo not drawn)" obs_value="> 54 µM"
compound=O=C(/C=C/c1ccccc1)c1ccccc1 obs_value="> 50 µM"
compound=CCc1ccccc1/C=C/C(=O)c1ccccc1 obs_value="> 50 µM"

###

Below, each entry is listed with its recorded selectivity ratio.
Test: Safety index, ratio of IC50 for human kidney epithelial cells to IC50 for Entamoeba histolytica HM-1:IMSS
Conditions: human kidney epithelial cells
PROPERTY_NAME: selectivity ratio

compound="Cc1cc(C)c(C2CC(c3ccccc3)=NN2c2nc3nc4ccccc4nc3s2)c(C)c1 (stereo unspecified)" obs_value="> 10.8"
compound="CCc1ccccc1C1CC(c2ccccc2)=NN1C(N)=S (stereo unspecified)" obs_value="> 31.1"
compound="c1ccc(C2=NN(c3nc4nc5ccccc5nc4s3)C(c3ccccc3)C2)cc1 (stereo unspecified)" obs_value="> 33.5"
compound="CC(C)c1ccccc1C1CC(c2ccccc2)=NN1c1nc2nc3ccccc3nc2s1 (stereo unspecified)" obs_value="> 294"
compound=O=C(/C=C/c1ccccc1Cl)c1ccccc1 obs_value="> 19.2"
compound="CCc1ccccc1C1CC(c2ccccc2)=NN1c1nc2nc3ccccc3nc2s1 (stereo unspecified)" obs_value="> 33.5"

###

Test: Safety index, ratio of IC50 for human kidney epithelial cells to IC50 for Entamoeba histolytica HM-1:IMSS
Conditions: human kidney epithelial cells
Listed here: items and their measured selectivity ratio.
PROPERTY_NAME: selectivity ratio

compound="Cc1ccc(C2CC(c3ccccc3)=NN2C(N)=S)cc1 (stereo unspecified)" property_name="selectivity ratio" obs_value="> 31.7"
compound="NC(=S)N1N=C(c2ccccc2)CC1c1c[nH]c2ccccc12 (stereo unspecified)" property_name="selectivity ratio" obs_value="> 30.5"
compound="Cc1ccc(C2CC(c3ccccc3)=NN2c2nc3nc4ccccc4nc3s2)cc1 (stereo unspecified)" property_name="selectivity ratio" obs_value="> 46.4"
compound="Clc1ccccc1C1CC(c2ccccc2)=NN1c1nc2nc3ccccc3nc2s1 (stereo unspecified)" property_name="selectivity ratio" obs_value="> 26.3"
compound="c1ccc(C2=NN(c3nc4nc5ccccc5nc4s3)C(c3c[nH]c4ccccc34)C2)cc1 (stereo unspecified)" property_name="selectivity ratio" obs_value="> 14"
compound="NC(=S)N1N=C(c2ccccc2)CC1c1ccccc1 (stereo unspecified)" property_name="selectivity ratio" obs_value="> 31.1"
compound=O=C(/C=C/c1c[nH]c2ccccc12)c1ccccc1 property_name="selectivity ratio" obs_value="> 24.4"
compound="Clc1cccc(C2CC(c3ccccc3)=NN2c2nc3nc4ccccc4nc3s2)c1Cl (stereo unspecified)" property_name="selectivity ratio" obs_value="> 56.2"
compound=CC(C)c1ccccc1/C=C/C(=O)c1ccccc1 property_name="selectivity ratio" obs_value="> 13.2"
compound="NC(=S)N1N=C(c2ccccc2)CC1c1ccccc1Cl (stereo unspecified)" property_name="selectivity ratio" obs_value="> 22.4"
compound=Cc1cc(C)c(/C=C/C(=O)c2ccccc2)c(C)c1 property_name="selectivity ratio" obs_value="> 35.5"

###

Test: Safety index, ratio of IC50 for human kidney epithelial cells to IC50 for Entamoeba histolytica HM-1:IMSS
Settings: human kidney epithelial cells
PROPERTY_NAME: selectivity ratio

compound="CC(C)c1ccccc1C1CC(c2ccccc2)=NN1C(N)=S (stereo not given)" obs_value="> 217"
compound=O=C(/C=C/c1ccccc1)c1ccccc1 obs_value="> 29.4"
compound=CCc1ccccc1/C=C/C(=O)c1ccccc1 obs_value="> 27.9"
compound=O=C(/C=C/c1ccc(Cl)c(Cl)c1)c1ccccc1 obs_value="> 24.9"
compound="Cc1cc(C)c(C2CC(c3ccccc3)=NN2C(N)=S)c(C)c1 (stereo not given)" obs_value="> 11.4"
